From: PubChem BioAssay (NCI)

Test system: U251 CNS
procedure summary: NCI-60 one-dose screen, 48 h (100 = growth as untreated, 0 = no growth, -100 = all killed)
condition description: 10 µM unless noted
About 83,000 compounds went through this panel and 20% of them were active in at least one assay; those are over-represented in the sample as a whole.
Binary call on growth: condition met from 80% upward, condition not met beneath that.

Consider the worked cases shown below.
O=C(O)c1cc([N+](=O)[O-])cc([N+](=O)[O-])c1 ... condition met
Nc1ccc2c(c1)Cc1cc(N)ccc1-2 ... condition met
CCCCS(=O)(=O)Cl ... condition met
CC(=O)Cc1ccc2c(c1)OCO2 ... condition met
CC[C@H](C)[C@H](NC(=O)[C@H]1CCCCN1C)C(=O)N(C)[C@H](C[C@@H](OC(C)=O)c1cccc(C(=O)N[C@@H](Cc2ccccc2)C[C@H](C)C(=O)OC)n1)C(C)C ... condition not met
COc1ccc2c(c1)C1(C)CCN(C)CC(C1)C2O (centres undefined) ... condition met
Oc1cc(N2CC2)c(O)cc1N1CC1 ... condition not met
COC(=O)[C@@H](C)C[C@H](Cc1ccccc1)NC(=O)c1cccc([C@@H](C[C@H](C(C)C)N(C)C(=O)[C@@H](NC(=O)[C@H]2CCCCN2C)C2CC2)OC(C)=O)n1 ... condition not met
COc1ccc(N(CC(=O)NCCC[Te]c2ccccc2)C(=O)c2ccccc2)cc1 ... condition not met
CCCC[C@H]1C(=O)O[C@H](C)[C@H](NC(=O)c2cccc(NC=O)c2O)C(=O)O[C@@H](C)[C@@H]1OC(=O)CC(C)C ... condition not met

Exercise: Identify whether the reported growth of the following compound is 80% or greater: O=NN(c1ccccc1)c1ccccc1
Key: condition met

Exercise: Identify whether the reported growth of the following compound is 80% or greater: C[C@]12CC[C@H]3[C@@H](C[C@@H]4SC(Nc5cccc(F)c5)=N[C@@]45CC(=O)CC[C@]35C)[C@@H]1CCC2=O
Key: condition not met

Exercise: Identify whether the reported growth of the following compound is 80% or greater: CC(=O)C(N)Cc1ccccc1 (centres undefined)
Key: condition met

Exercise: Identify whether the reported growth of the following compound is 80% or greater: CCCCOC(N)=O
Key: condition met

Exercise: Identify whether the reported growth of the following compound is 80% or greater: O=P1(N(CCCl)CCCl)NCCCO1 (centres undefined)
Key: condition met

Exercise: Identify whether the reported growth of the following compound is 80% or greater: O=C1C=C(N2CC2)c2ccccc2C1=O
Key: condition not met

Exercise: Identify whether the reported growth of the following compound is 80% or greater: NC1CN2CCC1CC2 (centres undefined)
Key: condition met

Exercise: Identify whether the reported growth of the following compound is 80% or greater: Cc1cc(NC(=O)NCCCOc2ccc(N3C(N)=NC(N)=NC3(C)C)cc2Cl)ccc1S(=O)(=O)F
Key: condition not met

Exercise: Identify whether the reported growth of the following compound is 80% or greater: CC[C@H](C)[C@H](NC(=O)[C@H]1CCCCN1C)C(=O)N(C)[C@H](C[C@@H](OC(C)=O)c1nc(C(=O)NC23C4C5C2C2C3C4C52C(=O)OC)cs1)C(C)C (some centres undefined)
Key: condition not met

Exercise: Identify whether the reported growth of the following compound is 80% or greater: C[C@]12CC[C@H]3[C@@H](C[C@@H]4SC(Nc5ccccc5)=N[C@@]45C/C(=N/O)CC[C@]35C)[C@@H]1CCC2=O
Key: condition not met

Exercise: Identify whether the reported growth of the following compound is 80% or greater: Cc1c2ccncc2c(C)c2c1[nH]c1ccccc12
Key: condition not met

Exercise: Identify whether the reported growth of the following compound is 80% or greater: O=C(O)C(F)F
Key: condition met

Exercise: Identify whether the reported growth of the following compound is 80% or greater: O=NN1CCCCC1
Key: condition met
